# Tested on: HT-1080
# measurement.notes: Modulatory profiling: Alamar Blue viability, lethal compound cotreated with death modulator (EC50, AUC)
# Type: cell-based
# Design: unit not given beside the values
# measurement.context: HT-1080, modulator ATA
AUC HT.ATA overview
// response body must contain only the number

molecule	measured.number
CCc1ccc(/C=C2/SC(=O)N(CCC(C)NCCCN3CCOCC3)C2=O)cc1 (stereo not drawn) [CIL46]	0.0162
O=S1(=O)Nc2c(ccc3cccnc23)-c2ccccc21 [CIL67]	0.08909
CC(/C=C/C(=O)NO)=C\[C@@H](C)C(=O)c1ccc(N(C)C)cc1 [TrichostatinA]	−0.0004817
CCCCNc1cc(C)nc(NCc2ccccc2)n1 [CIL18]	0.001415

I looked up COc1ccc(-n2nnnc2S(=O)(=O)CC(=O)N2CCCCC2)cc1 [CIL48] and its AUC HT.ATA for HT-1080 was 0.04684

I looked up C=CCC1(Cl)C(=O)C(Cl)=C(n2ccnc2)C1(OC)OC (stereo not drawn) [CIL76] and its AUC HT.ATA for HT-1080 was 0.04513

I looked up CCCCS(=O)(=O)/C=C\C=C/S(=O)(=O)CCCC [CIL49] and its AUC HT.ATA for HT-1080 was 0.04768

###

# Test system: HT-1080
# measurement.notes: Modulatory profiling: Alamar Blue viability, lethal compound cotreated with death modulator (EC50, AUC)
# Type: cell-based
# measurement.context: HT-1080, modulator CspA
Returns one of yes or no; yes when AUC HT.CspA is >= -0.04.

Solved cases below.
compound	label.value
[N-]=[N+]=[N-].[Na+]	no
C[C@@H]1C[C@@H]([C@H](O)CC2CC(=O)NC(=O)C2)C(=O)[C@@H](C)C1 [cycloheximide, Cycloheximide, reference compound]	yes
COc1cccc2c1C(=O)c1c(O)c3c(c(O)c1C2=O)C[C@@](O)(C(=O)CO)C[C@@H]3O[C@H]1C[C@H](N)[C@H](O)[C@H](C)O1	no
O=C(CCl)N(c1ccccc1)c1c[nH]c2ccccc12	yes

Does AUC HT.CspA meet or surpass -0.04 for COc1ccc(Nc2ccc3c(c2)=NC2(CCCCC2)[N+]=3[O-])cc1 ?
yes

Does AUC HT.CspA meet or surpass -0.04 for O=C1C(Cl)=C(N2CCOCC2)C(=O)C(Cl)=C1N1CCOCC1 ?
yes

Does AUC HT.CspA meet or surpass -0.04 for Cc1ccc(O)c(/N=C/C=C/c2cccc(Br)c2)c1 ?
yes

Does AUC HT.CspA meet or surpass -0.04 for CC(C)C[C@H](NC(=O)[C@H](CC(C)C)NC(=O)[C@H](CC(C)C)NC(=O)OCc1ccccc1)B(O)O ?
no

Does AUC HT.CspA meet or surpass -0.04 for CC(C)=CCCC1=CCC(CNCCCN(C)C)C(C)C1 (centres unmarked) ?
yes

Does AUC HT.CspA meet or surpass -0.04 for CCCCS(=O)(=O)/C=C\C=C/S(=O)(=O)CCCC ?
yes

Does AUC HT.CspA meet or surpass -0.04 for CC1=CC(C)(C)Nc2ccc(OC(=O)c3ccco3)cc21 ?
yes

Does AUC HT.CspA meet or surpass -0.04 for CCCCNc1c(Cl)cnn(-c2ccccc2)c1=O ?
yes

Does AUC HT.CspA meet or surpass -0.04 for O=C1c2c(O)ccc(O)c2C(=O)c2c(NCCNCCO)ccc(NCCNCCO)c21 ?
no

Does AUC HT.CspA meet or surpass -0.04 for COc1cc([C@@H]2c3cc4c(cc3[C@@H](O[C@@H]3O[C@@H]5CO[C@@H](C)O[C@H]5[C@H](O)[C@H]3O)[C@H]3COC(=O)[C@H]23)OCO4)cc(OC)c1O [Etoposide] ?
no

###

# Test system: BJeLR
# measurement.notes: Modulatory profiling: Alamar Blue viability, lethal compound cotreated with death modulator (EC50, AUC)
# Assay type: cell-based, human
# Set-up: unit not given beside the values
# measurement.context: BJeLR cells; lethal compound cotreated with modulator Nec-1; modulatory profile value (AUC)
Returns one of TRUE or FALSE; TRUE when AUC, modulator BJ.Nec-1 is >= 0.02.

Solved cases below.
> print(dat)
                                   molecule  label.value
1  O=C(/C=C/c1cccc(NC(=O)c2cccs2)c1)c1ccccc1        FALSE
2           COC(C)(C)C#CC(=O)c1cccc2ccccc12        FALSE
3  CC[C@@]1(O)C(=O)OCc2c1cc1n(c2=O)Cc2cc3ccccc3nc2-1         TRUE
4  O=C1c2c(O)ccc(O)c2C(=O)c2c(NCCNCCO)ccc(NCCNCCO)c21        FALSE

Does AUC, modulator BJ.Nec-1 meet or surpass 0.02 for C[S+]([O-])c1nc(-c2ccc(Br)cc2)cc(-c2ccccc2)c1C#N (centres unmarked) ?
TRUE

###

AUC, modulator BJ.Co2+ overview
# Test system: BJeLR
# measurement.notes: Modulatory profiling: Alamar Blue viability, lethal compound cotreated with death modulator (EC50, AUC)
# Type: cell-based, human
# Design: unit not given beside the values
# measurement.context: BJeLR cells; lethal compound cotreated with modulator Co2+; modulatory profile value (AUC)
// response body must contain only the number

See these solved cases before continuing.
molecule	AUC, modulator BJ.Co2+
CC(C)(C)C1CCc2c(sc(NC(=O)CN3CCNCC3)c2C(N)=O)C1 (stereo not shown)	0.1142
COc1cc([C@@H]2c3cc4c(cc3[C@@H](O[C@@H]3O[C@@H]5CO[C@@H](C)O[C@H]5[C@H](O)[C@H]3O)[C@H]3COC(=O)[C@H]23)OCO4)cc(OC)c1O [Etoposide]	0.0951
CC1=CC(C)(C)Nc2ccc(OC(=O)c3cccnc3)cc21	−0.1379
CC1CC2=C(CC1CNCCCN(C)C)C(C)(C)CCC2 (stereo not shown)	0.04871
COC(=O)c1ccc([C@@H]2c3[nH]c4ccccc4c3C[C@@H](C(=O)OC)N2C(=O)CCl)cc1 [RSL3, reference compound]	0.1091

Just so you know, measured AUC, modulator BJ.Co2+ for OCCNCC(O)Cn1c2ccc(Br)cc2c2cc(Br)ccc21 (stereo not shown) came out at 0.09999

###

# System: HT-1080
# measurement.notes: Modulatory profiling: Alamar Blue viability, lethal compound cotreated with death modulator (EC50, AUC)
# Type: cell-based
# measurement.context: Homo sapiens, HT-1080, 48 h, HT-1080; cotreated with iron-chelator Deferoxamine; 48 h
experimental.readout: EC50
# do not omit the unit; it follows the number

See these solved cases before continuing.
> print(dat)
                                  structure  experimental.readout   result
1       O=C(CCl)N(c1ccccc1)c1c[nH]c2ccccc12                  EC50  9.29 µM
2  O=S(=O)(c1ccc2c(c1)C(=NO)c1cc(S(=O)(=O)N3CCCCC3)ccc1-2)N1CCCCC1                  EC50  1.36 µM
3  N/C(Cc1ccc(Cl)cc1)=N\OC(=O)c1cccc2ccccc12                  EC50   157 µM
4   O=C(CCl)N(c1ccc(Cl)cc1)c1c[nH]c2ccccc12                  EC50  4.82 µM
5  COC(=O)[C@@H]1Cc2c([nH]c3ccccc23)C(C)(C)N1C(=O)CCl                  EC50  32.4 µM

Now look at this one.
Just so you know, measured EC50 for N/C(=N\OC(=O)C12CC3CC(CC(C3)C1)C2)c1ccccc1 came out at 124 µM

###

# Tested on: HT-1080 cells
# measurement.notes: Cell viability assay (Alamar Blue), lethal compounds with or without modulators
# Format: cell-based
# measurement.context: HT-1080 cells; modulator cotreatment or pretreatment
experimental.readout: effect on FIN56 lethality

structure	effect on FIN56 lethality
C[C@H]1O[C@@H](O[C@H]2[C@@H](O)C[C@H](O[C@H]3[C@@H](O)C[C@H](O[C@H]4CC[C@@]5(C)[C@H](CC[C@@H]6[C@@H]5C[C@@H](O)[C@]5(C)[C@@H](C7=CC(=O)OC7)CC[C@]65O)C4)O[C@@H]3C)O[C@@H]2C)C[C@H](O)[C@@H]1O	enhanced FIN56 lethality
O=C(O)CN(CCOCCOCCN(CC(=O)O)CC(=O)O)CC(=O)O	suppressed it
O=C(O)CN(CC(=O)O)c1ccccc1OCCOc1ccccc1N(CC(=O)O)CC(=O)O	suppressed it
CNc1ccc2oc(C[C@H]3O[C@@]4(CC[C@H]3C)O[C@H]([C@H](C)C(=O)c3ccc[nH]3)[C@H](C)C[C@H]4C)nc2c1C(=O)O	enhanced FIN56 lethality

Now look at this one.
Just so you know, measured effect on FIN56 lethality for C[C@H](CCC(=O)O)C[C@H](C)C[C@H](C)C(=O)/C=C(\O)[C@H](C)C[C@H](C)C/C=C/[C@@H](C)[C@@H](O)[C@@H](C)[C@@H](O)C[C@@H]1CC[C@@](C)([C@H]2CC[C@@](C)([C@@H](C)O)O2)O1 came out at enhanced FIN56 lethality
